Value source: patent US4122199A

# protocolDetails: Solubility characteristics
# Type: physicochemical
# testConditions: ethanol; % soluble
Where a name gives a salt, the structure may show the parent alone.
valueKind: Solubility in ethanol

> print(dat)
                                   molecule              valuekind  reportedmeasurement
1  O=C(NCCN1CCCC1)C1c2ccccc2Oc2ccccc21 [F 1534, hydrochloride]  Solubility in ethanol                  10%
2  O=C(NCCN1CCCC1)c1cc2ccccc2oc1=O [Example 14, hydrochloride]  Solubility in ethanol                   4%
3  O=C(NCCN1CCCC1)N1c2ccccc2Sc2ccccc21 [F 1461, hydrochloride]  Solubility in ethanol                  10%
4  CCC(C(=O)NCCN1CCCC1)c1ccccc1 (stereo not shown) [F 1419, hydrochloride]  Solubility in ethanol                  15%
5  Cc1cc(Br)cc(C(=O)NCCN2CCCC2)c1O [Example 9, hydrochloride]  Solubility in ethanol                   3%
6  CCOC(C(=O)NCCN1CCCC1)(c1ccccc1)c1ccccc1 [F 1460, hydrochloride]  Solubility in ethanol                   4%
7  O=C(NCCN1CCCC1)C(c1ccccc1)c1ccccc1 [F 1459, hydrochloride]  Solubility in ethanol                   5%
